Values were extracted from the supplement of paper PMC9262897.

Field: growth. Provide a value for each of the molecules that follow.
Tested on: E. coli TESEC Mtb Alr
run.description: growth (OD600 after 10 h); higher = more growth (less inhibition)
run.conditions: arabinose 10000000 nM; compound 0.1 mM; raw OD600 reference: median of DMSO wells 0.146, cell-free background 0.041
Structures can show the parent of a compound that is named as a salt.

Examples with answers:
CCN(C)C(=O)Oc1cccc([C@H](C)N(C)C)c1	0.156
CCCN1C[C@H](CSC)C[C@@H]2c3cccc4[nH]cc(c34)C[C@H]21 [Pergolide mesylate]	0.156
C[C@@H]1CC[C@H]2[C@@H](C)C(=O)O[C@@H]3O[C@@]4(C)CC[C@@H]1[C@]32OO4	0.135

Consider the additional molecule presented here.
Find the recorded growth belonging to C[C@]12CC[C@H](O)C[C@@H]1CC[C@@H]1[C@@H]2CC[C@]2(C)C(=O)CC[C@@H]12 [Epiandrosterone] and report it.
0.0859

###

Field: growth. Provide a value for each of the compounds that follow.
Tested on: E. coli TESEC Mtb Alr
run.description: growth (OD600 after 10 h); higher = more growth (less inhibition)
run.conditions: arabinose 1000 nM; compound 0.1 mM; raw OD600 reference: median of DMSO wells 0.294, cell-free background 0.041
Structures can show the parent of a compound that is named as a salt.
One number for each entry.

CC(Cc1ccccc1)NCCC(c1ccccc1)c1ccccc1 (stereo not given) [Prenylamine lactate]	0.0393
C[C@]12CCC(=O)C(O)=C1CC[C@@H]1[C@@H]2CC[C@]2(C)C(=O)CC[C@@H]12	0.182
C[N+]1([O-])[C@@H]2C[C@@H](OC(=O)[C@H](CO)c3ccccc3)C[C@H]1[C@@H]1O[C@@H]12 (stereo not given in full) [Scopolamin-N-oxide hydrobromide]	0.3
CC(=O)OCC(=O)[C@H]1CC[C@H]2[C@@H]3CC[C@H]4C[C@H](O)CC[C@]4(C)[C@H]3C(=O)C[C@]12C [Alfadolone acetate]	0.196
C[C@]12CC[C@@H]3c4ccc(OC(=O)N(CCCl)CCCl)cc4CC[C@H]3[C@@H]1CC[C@@H]2O	0.306

Each compound below has a reported value. Please supply its growth.
1. CC[C@@]1([C@@H]2O[C@@H]([C@H]3O[C@@](O)(CO)[C@H](C)C[C@@H]3C)C[C@@H]2C)CC[C@H]([C@]2(C)CC[C@]3(C[C@H](O)[C@@H](C)[C@@H]([C@@H](C)[C@@H](OC)[C@H](C)C(=O)O)O3)O2)O1 [Monensin sodium salt]
2. COc1ccc(OC)c(C(O)C(C)N)c1 (stereo not given) [Methoxamine hydrochloride]
3. CC(NC(C)(C)C)C(=O)c1cccc(Cl)c1 (stereo not given) [Bupropion hydrochloride]
4. C[C@]12CC[C@H](O)C[C@H]1CC[C@@H]1[C@@H]2CC[C@]2(C)[C@@H](C3=CC(=O)OC3)CC[C@]12O
5. C=CCC1(CC(C)C)C(=O)NC(=O)NC1=O

1: 0.279; 2: 0.292; 3: 0.283; 4: 0.197; 5: 0.282

Each compound below has a reported value. Please supply its growth.
1. CCC(COC(=O)c1cc(OC)c(OC)c(OC)c1)(c1ccccc1)N(C)C (stereo not given)
2. C[C@]12CC[C@H]3[C@@H](CCC4=CC(=O)CC[C@@H]43)[C@@H]1CC[C@@H]2O
3. CC(C)(C)NCC(O)c1ccccc1Cl (stereo not given)
4. CC[N+]1(C)CCCC(OC(=O)C(O)(c2ccccc2)c2ccccc2)C1 (stereo not given) [Pipenzolate bromide]
5. CNCC(O)c1ccc(O)cc1 (racemic) [(+,-)-Synephrine]

0.142
0.201
0.272
0.284
0.296
